Details: in n-butanol, 288.15 K
RECORDED METRIC: solubility (mole fraction)

SMILES REPRESENTATION	RECORDED METRIC	NUMERIC VALUE
O=C(N[C@H](Cc1ccccc1)C(=O)O)OCC1c2ccccc2-c2ccccc21	solubility (mole fraction)	0.00136

* * *

Conditions: in methanol, 323.15 K

SMILES REPRESENTATION	solubility (mole fraction)
O=C(N[C@H](Cc1ccccc1)C(=O)O)OCC1c2ccccc2-c2ccccc21	0.00513

* * *

Conditions: in ethanol, 283.15 K
RECORDED METRIC: solubility (mole fraction)

SMILES REPRESENTATION	NUMERIC VALUE
O=C(N[C@H](Cc1ccccc1)C(=O)O)OCC1c2ccccc2-c2ccccc21	0.00161

* * *

Settings: in methyl acetate, 293.15 K

SMILES REPRESENTATION	solubility (mole fraction)
O=C(N[C@H](Cc1ccccc1)C(=O)O)OCC1c2ccccc2-c2ccccc21	0.00408

* * *

Conditions: in n-butanol, 293.15 K

SMILES REPRESENTATION	solubility (mole fraction)
O=C(N[C@H](Cc1ccccc1)C(=O)O)OCC1c2ccccc2-c2ccccc21	0.00156

* * *

Conditions: in 2-butanone, 303.15 K

SMILES REPRESENTATION	solubility (mole fraction)
O=C(N[C@H](Cc1ccccc1)C(=O)O)OCC1c2ccccc2-c2ccccc21	0.00993

* * *

Settings: in ethyl acetate, 298.15 K

SMILES REPRESENTATION	solubility (mole fraction)
O=C(N[C@H](Cc1ccccc1)C(=O)O)OCC1c2ccccc2-c2ccccc21	0.00379

* * *

Conditions: in acetonitrile, 313.15 K
RECORDED METRIC: solubility (mole fraction)

SMILES REPRESENTATION	RESULT
O=C(N[C@H](Cc1ccccc1)C(=O)O)OCC1c2ccccc2-c2ccccc21	0.00138

* * *

Conditions: in ethanol, 313.15 K

SMILES REPRESENTATION	solubility (mole fraction)
O=C(N[C@H](Cc1ccccc1)C(=O)O)OCC1c2ccccc2-c2ccccc21	0.00324

* * *

Details: in isopropanol, 318.15 K

SMILES REPRESENTATION	solubility (mole fraction)
O=C(N[C@H](Cc1ccccc1)C(=O)O)OCC1c2ccccc2-c2ccccc21	0.00311

* * *

Details: in acetone, 288.15 K
RECORDED METRIC: solubility (mole fraction)

SMILES REPRESENTATION	RESULT
O=C(N[C@H](Cc1ccccc1)C(=O)O)OCC1c2ccccc2-c2ccccc21	0.00759

* * *

Settings: in 2-butanone, 288.15 K

SMILES REPRESENTATION	solubility (mole fraction)
O=C(N[C@H](Cc1ccccc1)C(=O)O)OCC1c2ccccc2-c2ccccc21	0.00728

* * *

Conditions: in ethanol, 293.15 K

SMILES REPRESENTATION	solubility (mole fraction)
O=C(N[C@H](Cc1ccccc1)C(=O)O)OCC1c2ccccc2-c2ccccc21	0.00187

* * *

Conditions: in n-butyl acetate, 293.15 K

SMILES REPRESENTATION	solubility (mole fraction)
O=C(N[C@H](Cc1ccccc1)C(=O)O)OCC1c2ccccc2-c2ccccc21	0.00243

* * *

Conditions: in 2-butanone, 298.15 K

SMILES REPRESENTATION	solubility (mole fraction)
O=C(N[C@H](Cc1ccccc1)C(=O)O)OCC1c2ccccc2-c2ccccc21	0.00895

Value source: BigSolDB 2.1
